Field: chromatographic logP. Provide a value for each of the molecules that follow.
experiment: logP(HCOOH) reported with HPLC/MS; details: logP(HCOOH), HPLC/MS
I'd appreciate a reply containing only the number, no unit.

[ask] What value of chromatographic logP has been reported for the following molecule? `CSc1cccc(C(=NOCc2cccc(N3C(=O)c4ccccc4C3=O)n2)c2nnnn2C)c1`
[reply] 3.39

[ask] Moving on to the next molecule: `CCCCCCOc1cccc(CON=C(c2ccccc2)c2nnnn2C)n1`
[reply] 5.39

[ask] Entry to check: `Cn1nnnc1C(=NOCc1cccc(C=O)n1)c1ccccc1`
[reply] 2.54

[ask] Okay, and `CC(C)(C)OC(=O)Nc1cccc(CO)n1` ?
[reply] 1.14

[ask] Again, but for `CON(C)C(=O)c1cccc(SC)c1`
[reply] 1.89

[ask] Please give the result for `CCCCC#Cc1ccc(F)c(CON=C(c2ccccc2)c2nnnn2C)n1` too.
[reply] 4.41

[ask] And `CC(C)(C)OC(=O)Nc1cccc(Br)n1` ?
[reply] 4.11

[ask] For Cc1cccc(NC=O)n1 [N-(6-methylpyridin-2-yl)formamide] then?
[reply] 0.45

[ask] Another: `Fc1ccc(Br)nc1CBr`
[reply] 2.58

[ask] Then this molecule: `CC(C)(C)OC(=O)Nc1cccc(C=O)n1`
[reply] 2.44

[ask] Thanks! And `Cn1nnnc1C(=NOCc1cccc(C=NOC2CCCCC2)n1)c1ccccc1` ?
[reply] 4.89

[ask] What would you report for `Cn1nnnc1C(=NOCc1csc(Br)n1)c1ccccc1` ?
[reply] 3.11

[ask] Similarly, `Cc1nnnn1C(=NOCc1csc(C#CC2CC2)n1)c1ccccc1` ?
[reply] 3.65

[ask] Try `CC(C)(C)OC(=O)N(CCC1CCCCC1)c1cccc(CO)n1` next.
[reply] 4.49

----------
Assignment: determine reported log p for the given compounds.
assay: Measurement of logP values according EEC directive 79/831 Annex V.A8 by HPLC on reversed phase columns; assay type: physicochemical; details: method [a]: pH 2.3 with 0.1% phosphoric acid and acetonitrile as eluent

[ask] Any idea what its log p is? The compound is `Cn1nnnc1C(=NOCc1csc(/C=C/CC2CCCC2)n1)c1ccccc1`
[reply] 5.14^[a]

[ask] Query `Cn1nnnc1C(=NOCc1cccc(NCC2CCCCC2)n1)c1ccccc1` next
[reply] 2.43^[a]

[ask] // same read-out, input: `Cn1nnnc1C(=NOCc1csc(/C=C/C2CC2)n1)c1ccccc1`
[reply] 3.58^[a]

[ask] Now consider `Cn1nnnc1C(=NOCc1cccc(NCC2CCCC2)n1)c1ccccc1` .
[reply] 2.3^[a]

[ask] Same question for CCCCC1CC(c2cccc(CON=C(c3ccccc3)c3nnnn3C)n2)=NO1 (centres unmarked) please.
[reply] 4.26^[a]

----------
assay: logP(HCOOH) reported with HPLC/MS; conditions: HCOOH (formic acid), logP(HCOOH), HPLC/MS
So basically, if chromatographic logP comes in under 3 it's Fulfilled, and if it's 3 or more it's Not fulfilled.

[ask] Just wondering, is chromatographic logP of CCCCCC(=O)NCc1cccc(CON=C(c2ccccc2)c2nnnn2C)n1 [Example 53] below 3?
[reply] Fulfilled

[ask] Same lookup for Cc1cccc(C2OCCO2)n1 [2-(1,3-dioxolan-2-yl)-6-methylpyridine] , please.
[reply] Fulfilled

[ask] Repeat for the following compound: `Cc1cccc(C2OCCO2)[n+]1[O-]`
[reply] Fulfilled

[ask] Try this compound next: `Cc1cccc(NC(=O)C(C)(C)C)n1`
[reply] Fulfilled

[ask] Moving on to CCCCCON(C(=O)OC(C)(C)C)c1cccc(CON=C(c2ccccc2)c2nnnn2C)n1 [Example 268]
[reply] Not fulfilled

[ask] // next record `CSc1cccc(C(=O)c2nnnn2C)c1`
[reply] Fulfilled

[ask] Same thing, different compound: Cn1nnnc1C(=NOCc1cccc(C=NO)n1)c1ccccc1 [Example 177]
[reply] Fulfilled

[ask] // query: `CN(C)c1cccc(C(=NOCc2cccc(N)n2)c2nnnn2C)c1`
[reply] Fulfilled

[ask] Also check Cn1nnnc1C(=NOCc1nc(C#CC2CC2)sc1Cl)c1ccccc1 [Example 114]
[reply] Not fulfilled

[ask] Quick one: Cn1nnnc1C(=NOCc1nc(Cl)sc1Cl)c1ccccc1 [Example 113]
[reply] Not fulfilled

----------
assay: logP by HPLC on reversed phase columns, method [a], pH 2.3 with 0.1% phosphoric acid and acetonitrile; format: physicochemical; details: method [a]: pH 2.3, 0.1% phosphoric acid and acetonitrile as eluent; EEC directive 79/831 Annex V.A8, reversed phase HPLC
MEASURED_PROPERTY: log p

[ask] Need log p, item `CC(C)CCC#Cc1nc(CON=C(c2ccccc2)c2nnnn2C)cs1`
[reply] 4.75^[a]

[ask] Do the same for `Cn1nnnc1C(=NOCc1cccc(/C=C/c2cccc(F)c2)n1)c1ccccc1` please
[reply] 4.29^[a]

[ask] Next: `COc1cccc(/C=C/c2cccc(CON=C(c3ccccc3)c3nnnn3C)n2)c1`
[reply] 4.14^[a]

[ask] Repeat for the following compound: `Cn1nnnc1C(=NOCc1csc(C#Cc2ccccc2)n1)c1ccccc1`
[reply] 4.16^[a]

[ask] Follow-up item: `Cn1nnnc1C(=NOCc1cccc(-c2cccc(Cl)c2)n1)c1ccccc1`
[reply] 4.49^[a]

[ask] Then CCCC(C)C#Cc1nc(CON=C(c2ccccc2)c2nnnn2C)cs1 (stereo not drawn) ?
[reply] 4.78^[a]

[ask] Next compound up: `C#Cc1cccc(CON=C(c2ccccc2)c2nnnn2C)n1`
[reply] 2.69^[a];

[ask] Try this compound next: `Cn1nnnc1C(=NOCc1cccc(C#Cc2ccccc2)n1)c1ccccc1`
[reply] 4.04^[a]

[ask] Try `CC(C)[Si](C#Cc1cccc(CON=C(c2ccccc2)c2nnnn2C)n1)(C(C)C)C(C)C` next.
[reply] 6.83^[a]

----------
experiment: logP(HCOOH) reported with HPLC/MS; conditions: method [b]: LC-MS at pH 2.7, 0.1% formic acid in water and acetonitrile, linear gradient 10% to 95% acetonitrile
MEASURED_PROPERTY: log p

[ask] Entry `Cc1cccc(CON=C(c2ccccc2)c2nnnn2C)n1` : reported log p = ?
[reply] 1.67^[b]

[ask] Then `CCCC#Cc1nc(CON=C(c2ccccc2)c2nnnn2C)c(Cl)s1` ?
[reply] 4.75^[b]

[ask] Do the same for `Cn1nnnc1C(=NOCc1cccc(C#CC2=CCCCC2)n1)c1ccccc1` please
[reply] 4.34^[b]

[ask] Input `CC(C)c1nc(CON=C(c2ccccc2)c2nnnn2C)cs1`
[reply] 3.39^[b]

[ask] `Cc1nnnn1C(=NOCc1cccc(C(=O)O)n1)c1ccccc1` , same question.
[reply] 1.97^[b]

----------
assay: logP(HCOOH) reported with HPLC/MS; conditions: formic acid (HCOOH), logP(HCOOH), HPLC/MS
MEASURED_PROPERTY: chromatographic logP
Please state the value as a number alone, without comment.

[ask] Quick one: chromatographic logP for Cn1nnnc1C(=NOCc1csc(NCCC2CCCCC2)n1)c1ccccc1 [Example 161] ?
[reply] 3.62

[ask] Entry Cn1nnnc1C(=NOCc1nc(Br)ccc1F)c1ccccc1 [Example 96] please
[reply] 3.27

----------
Field: log p. Provide a value for each of the molecules that follow.
assay: logP by HPLC on reversed phase columns, method [a], pH 2.3 with 0.1% phosphoric acid and acetonitrile; type: physicochemical; settings: method [a]: pH 2.3, 0.1% phosphoric acid and acetonitrile as eluent; EEC directive 79/831 Annex V.A8, reversed phase HPLC

[ask] // query log p value for entry `Cn1nnnc1C(=NOCc1cccc(C#CC2CCCCC2)n1)c1ccccc1`
[reply] 4.77^[a]

[ask] Queued: `Cn1nnnc1C(=NOCc1csc(C#CCC2CCCCC2)n1)c1ccccc1`
[reply] 5.32^[a]

[ask] Moving on to `CCCCCC/C=C/c1cccc(CON=C(c2ccccc2)c2nnnn2C)n1`
[reply] 5.5^[a]

[ask] Try this molecule next: `CC(C)CC#Cc1nc(CON=C(c2ccccc2)c2nnnn2C)cs1`
[reply] 4.34^[a]

[ask] Can you check `Cn1nnnc1C(=NOCc1cccc(-c2ccc(-c3ccccc3)cc2)n1)c1ccccc1` next?
[reply] 5.05^[a]

[ask] Proceed to `Cn1nnnc1C(=NOCc1cccc(-c2cccc(CON=C(c3ccccc3)c3nnnn3C)n2)n1)c1ccccc1`
[reply] 4.36^[a]

[ask] Please do the same for `Cn1nnnc1C(=NOCc1csc(C#CCC2CCCC2)n1)c1ccccc1` as well.
[reply] 4.92^[a]

[ask] Further, for `CCCCC/C=C/c1nc(CON=C(c2ccccc2)c2nnnn2C)cs1` ?
[reply] 5.05^[a]

[ask] For `COCC#Cc1nc(CON=C(c2ccccc2)c2nnnn2C)cs1` then?
[reply] 2.92^[a]

----------
Please go through the items and note down their log p.
assay: logP(HCOOH) reported with HPLC/MS; conditions: method [b]: LC-MS, pH 2.7 with 0.1% formic acid in water and acetonitrile (0.1% formic acid), linear gradient 10% to 95% acetonitrile

[ask] Request the reported log p associated with Cc1nnnn1C(=NOCc1csc(C#CCC2CCCCC2)n1)c1ccccc1 [Example 169]
[reply] 5.41^[b]

[ask] Similarly, Cn1nnnc1C(=NOCc1cccc(C#CCC2CCCCC2)n1)c1ccccc1 [Example 213] ?
[reply] 5.17^[b]

[ask] Again, but for Cn1nnnc1C(=NOCc1cccc(C#Cc2ccc(OC(F)(F)F)cc2)n1)c1ccccc1 [Example 220]
[reply] 4.75^[b]

[ask] Okay, and COc1ccc(CON=C(c2ccccc2)c2nnnn2C)nc1C#CC(C)(C)C [Example 133] ?
[reply] 3.92^[b]

[ask] Try CCCc1ccc(C#Cc2cccc(CON=C(c3ccccc3)c3nnnn3C)n2)cc1 [Example 244] next.
[reply] 5.23^[b]

[ask] Please answer likewise for Cn1nnnc1C(=NOCc1csc(C#Cc2cccc(C#N)c2)n1)c1ccccc1 [Example 259]
[reply] 3.76^[b]

[ask] How about this compound: Cn1nnnc1C(=NOCc1cccc(C#CCC2CCCC2)n1)c1ccccc1 [Example 236]
[reply] 4.78^[b]

[ask] Continue with CCSCC#Cc1nc(CON=C(c2ccccc2)c2nnnn2C)cs1 [Example 199]
[reply] 3.78^[b]

[ask] What about Cn1nnnc1C(=NOCc1csc(C#CCC2CCCCC2)n1)c1cccc(F)c1 [Example 147] ?
[reply] 5.42^[b]

[ask] // next record Cn1nnnc1C(=NOCc1cccc(C#CCCO)n1)c1ccccc1 [Example 253]
[reply] 2.23^[b]

[ask] Same lookup for CCCCCCC#Cc1cccc(CON=C(c2ccccc2)c2nnnn2C)n1 [Example 235] , please.
[reply] 5.11^[b]

[ask] Try this compound next: Cn1nnnc1C(=NOCc1csc(C#CCCc2ccccc2)n1)c1cccc(F)c1 [Example 156]
[reply] 4.49^[b]

[ask] Item: Cn1nnnc1C(=NOCc1cccc(C#CCN2CCOCC2)n1)c1ccccc1 [Example 242]
[reply] 1.44^[b]

[ask] Also Cc1sc(C#CC2CCCC2)nc1CON=C(c1ccccc1)c1nnnn1C [Example 190] ?
[reply] 4.75^[b]

[ask] Next up: Cn1nnnc1C(=NOCc1cccc(C#Cc2ccc(C#N)cc2)n1)c1ccccc1 [Example 224]
[reply] 3.69^[b]

[ask] Quick one: COc1ccc(C#Cc2cccc(CON=C(c3ccccc3)c3nnnn3C)n2)cc1 [Example 228]
[reply] 4.01^[b]

[ask] Proceed to Cn1nnnc1C(=NOCc1cccc(C#Cc2cccc(C(F)(F)F)c2)n1)c1ccccc1 [Example 218]
[reply] 4.62^[b]

[ask] Likewise for Cn1nnnc1C(=NOCc1cccc(C#Cc2cc(F)cc(F)c2)n1)c1ccccc1 [Example 233] ?
[reply] 4.31^[b]

[ask] Another: Cn1nnnc1C(=NOCc1cccc(NCC2CC2(Cl)Cl)n1)c1ccccc1 (stereo not shown) [Example 205]
[reply] 2.75^[b]

[ask] Subsequent entry: CCc1ccc(C#Cc2nc(CON=C(c3ccccc3)c3nnnn3C)ccc2OC)cc1 [Example 134]
[reply] 4.56^[b]

[ask] Further, for Cc1sc(C#CCC2CCCCC2)nc1CON=C(c1ccccc1)c1nnnn1C [Example 184] ?
[reply] 5.62^[b]

[ask] Next: Cn1nnnc1C(=NOCc1cccc(C#CCCCCCl)n1)c1ccccc1 [Example 211]
[reply] 3.99^[b]

[ask] Now the compound COc1ccc(CON=C(c2ccccc2)c2nnnn2C)nc1C#CC1CCCCC1 [Example 132]
[reply] 4.44^[b]

[ask] Here is the next compound: Cc1sc(C#CCC2CCCC2)nc1CON=C(c1ccccc1)c1nnnn1C [Example 185]
[reply] 5.2^[b]

[ask] Check Cn1nnnc1C(=NOCc1cccc(C#CCCC2CCCCC2)n1)c1ccccc1 [Example 237] too.
[reply] 5.62^[b]

[ask] Now consider Cn1nnnc1C(=NOCc1cccc(C#Cc2ccccc2F)n1)c1ccccc1 [Example 247] and answer again.
[reply] 4.06^[b]

[ask] Also Cn1nnnc1C(=NOCc1cccc(C#CCCCCl)n1)c1ccccc1 [Example 212] ?
[reply] 3.71^[b]

[ask] Do the same for Cn1nnnc1C(=NOCc1cccc(C#Cc2ccc(N3CCCCC3)cc2)n1)c1ccccc1 [Example 232] please
[reply] 4.81^[b]
